- Method notes: AP1 Signaling Pathway (AID 357);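 further: ME-180 reporter cells stimulated with EGF at its EC50 level; on the % scale 0 is the no-effect control and ±100 the full control effect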
- Test parameters: ME-180 (cervical carcinoma) AP-1-bla reporter, EGF-induced, beta-lactamase ratio, 5 h; at 17.2 µM (top of the series) unless noted
Results filed as inconclusive are left out.
Quantity name: activity change, negative = inhibition (%)
State the answer as a number, implicitly in %.

Check out these entries, answers already filled in.
Give the reported activity change, negative = inhibition for this compound. Nc1ccc(Cl)cc1/C(=N/O)c1ccccc1
-16.4

Give the reported activity change, negative = inhibition for this compound. CCC(=O)NC1(C(F)(F)F)C(=O)Nc2c1c(=O)[nH]c(=O)n2Cc1ccco1 (stereo not given)
6.62

Give the reported activity change, negative = inhibition for this compound. CCNc1nc(NC(C)C)nc(N(C#N)C(C)C(=O)N(C)C)n1 (stereo not given)
-3.35

Give the reported activity change, negative = inhibition for this compound. Cc1nn(-c2cccc(Cl)c2)c2c1C(c1ccncc1)C(C#N)=C(N)O2 (stereo not given)
17.6

Kindly review the next compound as well.
Give the reported activity change, negative = inhibition for this compound. COC(=O)c1ccc(C2/C(=C(/O)c3ccc(OC)cc3)C(=O)C(=O)N2Cc2ccco2)cc1 (stereo not given)
-4.01
